Data provenance is PubChem BioAssay.

experiment: RAM signaling pathway blockade in yeast – S. cerevisiae, Pdr1DBD-CYC8 efflux-inhibited sensitized strain, primary screen (AID 1298);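 note: 0% = DMSO untreated cells without growth and 100% = 10 µM 1-NA-PP1 full growth; higher means more yeast growth rescued from 5-FOA killing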; details: S. cerevisiae cbk1-as DSE1-URA3 strain, 5-FOA growth OD615, 2 d; at 50 µM; hits give high values
quantity: RAM network inhibition (%)
Write down the numeric answer in % and omit the unit.

INSERT INTO measurements (molecule, unitstext, quantitativereadout) VALUES
  ('C=CCn1c(C)cc(C(=O)COc2nncc3ccccc23)c1C', '%', 0.87),
  ('C=C1c2ccc(C)cc2NC(=O)N1c1ccccc1', '%', 0.1),
  ('CCCCCn1c(NC2CCCCC2)nc2c1c(=O)[nH]c(=O)n2C', '%', -0.84);

Lookup result for "COCc1nc(-c2ccc(-c3ccc(OC)cc3)nc2OC)no1" ; measured RAM network inhibition: 2.1

Record "Cn1c(=O)oc2cc(S(=O)(=O)NCc3ccco3)ccc21" , field RAM network inhibition: 3.2

Kindly note the recorded RAM network inhibition for CC1(C)CCCC2=C1CC1C(=O)N(Cc3cccnc3)C(=O)C1C2 (stereo unspecified) , which is 4.53
